settings: in n-propanol, 298.15 K
readout label: solubility (mole fraction)

-- ask Can you look up the measured solubility (mole fraction) of O=C(c1ccccc1)c1ccc(Cl)cc1 for me?
-- reply 0.0247

---

details: in acetonitrile, 293.15 K
readout label: solubility (mole fraction)
Number only, please.

-- ask For the compound shown here, O=C(c1ccccc1)c1ccc(Cl)cc1 , give the reported solubility (mole fraction).
-- reply 0.0438

---

conditions: in methanol, 298.15 K
readout label: solubility (mole fraction)
Please respond with just the number, no unit label.

-- ask Which solubility (mole fraction) value belongs to O=C(c1ccccc1)c1ccc(Cl)cc1 ?
-- reply 0.012

---

details: in ethanol, 298.15 K
readout label: solubility (mole fraction)
Would you mind answering with just the numeric figure?

-- ask Fill in: solubility (mole fraction) of O=C(c1ccccc1)c1ccc(Cl)cc1 is ___
-- reply 0.0195
